# protocol details: pI of native glucagon and glucagon derivatives
# Assay type: physicochemical
Bridge positions count the residues as written; N and C are the ends. Square brackets hold non-standard residues; d marks the D form. Ends that are not written are not given here. Aib = CC(C)(N)C(=O)O
Tick yes if pl is 6 or greater. Tick no if pl is less than 6.

These solved cases illustrate the format of a correct answer.
| residues | group label |
| --- | --- |
| YXQGTFTSDYSKYLDECRAKEFVQWLMNT (Y[Aib]QGTFTSDYSKYLDECRAKEFVQWLMNT; lactam 16-20) [SEQ ID NO: 20] | no |
| YXQGTFTSDYSKYLDSRRAQDFVQWLMNTC (glucagon derivative; (2) Xaa is aminoisobutyric acid (Aib)) [SEQ ID NO: 44] | yes |
| WXQGTFTSDYSKCLDERRAKDFVQWLMNT (W[Aib]QGTFTSDYSKCLDERRAKDFVQWLMNT; lactam 16-20) [SEQ ID NO: 30] | no |
| YXQGTFTSDYSKYLCEKRAKEFVQWLMNT (Y[Aib]QGTFTSDYSKYLCEKRAKEFVQWLMNT; lactam 16-20) [SEQ ID NO: 19] | yes |
| YXQGTFTSDYSCYLDEKRAKEFVQWLMNT (Y[Aib]QGTFTSDYSCYLDEKRAKEFVQWLMNT) [SEQ ID NO: 45] | no |

Please indicate if the recorded pl for HSQGTFTSDYSKYLDCDRAQDFVQWLMNT (glucagon derivative) [SEQ ID NO: 2] meets or exceeds 6.
no

Is the recorded value of pl equal to or greater than 6 for this sequence? YXQGTFTSDYSKYLDEKCAKEFVQWLMNT [SEQ ID NO: 11] (Y[Aib]QGTFTSDYSKYLDEKCAKEFVQWLMNT)
no

Say whether YXQGTFTSDYSKYLDEKRCKEFVQWLMNT (Y[Aib]QGTFTSDYSKYLDEKRCKEFVQWLMNT; lactam 16-20) [SEQ ID NO: 22] shows pl of 6 or more.
yes

Textbook exercise: given the entry YXQGTFTSDYSKYLDEKCAKEFVQWLMNT [SEQ ID NO: 21] (Y[Aib]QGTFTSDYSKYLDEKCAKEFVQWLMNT; lactam 16-20) , state whether its pl is greater than or equal to 6.
no

Item YXQGTFTSDYSKYLDSCDAQDFVQWLINT (Y[Aib]QGTFTSDYSKYLDSCDAQDFVQWLINT) [SEQ ID NO: 8] with pl of 6 or above?
no

* * *

# protocol details: pI of native glucagon and glucagon derivatives
# Assay type: physicochemical
Bridge positions count the residues as written; N and C are the ends. Square brackets hold non-standard residues; d marks the D form. Ends that are not written are not given here. Aib = CC(C)(N)C(=O)O
experimental readout: pl
Number only, no unit.

Field: example entries. Status: answers known.
| residues | pl |
| --- | --- |
| WXQGTFTSDYSKYLDECRAKDFVQWLMNT (W[Aib]QGTFTSDYSKYLDECRAKDFVQWLMNT; lactam 16-20) [SEQ ID NO: 26] | 4.68 |
| YSQGTFTSDYSKYLDSCEADDFVQWLMNT (glucagon derivative) [SEQ ID NO: 7] | 3.71 |
| YXQGTFVSDYSKYLDERRAKDFVQWLMNTC (Y[Aib]QGTFVSDYSKYLDERRAKDFVQWLMNTC; lactam 16-20) [SEQ ID NO: 40] | 6.15 |
| YXQGTFTSDYSCYLDSRRAQDFVQWLMNT (Y[Aib]QGTFTSDYSCYLDSRRAQDFVQWLMNT) [SEQ ID NO: 13] | 4.43 |

Answer with the recorded pl of YXQGTFTSDYSKYLCEKRAQDFVVWLMNT (Y[Aib]QGTFTSDYSKYLCEKRAQDFVVWLMNT) [SEQ ID NO: 15] only.
6.11

Entry YXQGTFTSDYSKYLDSRRAQDFVQWLMNT (X non-natural residue; glucagon derivative; (2) Xaa is aminoisobutyric acid (Aib)) [SEQ ID NO: 33] needs its pl filled in; supply it.
6.04

// fetch pl given entry YXQGTFTSDYSKYLDEKRAKCFVQWLMNT (Y[Aib]QGTFTSDYSKYLDEKRAKCFVQWLMNT; lactam 16-20) [SEQ ID NO: 25]
8.12
